Test system: PC-3
Procedure details: Antiproliferative activity against human PC3 cells after 72 hrs
Format: functional, cell-based
Experimental conditions: PC-3, 72 h
Property name: IC50 (µM)
Expressed in µM, but write only the number.

Examples with their reported IC50 follow.
>>> reported_measurement("COc1cc(OC)c(C(=O)/C=C/c2ccccc2Cl)c(O)c1CN(C)C")
0.4
>>> reported_measurement("CCN(CC)Cc1c(OC)cc(OC)c(C(=O)/C=C/c2ccccc2Cl)c1O")
4.2
>>> reported_measurement("COc1cc(OC)c(C(=O)/C=C/c2ccccc2Cl)c(O)c1CN1CCCC1")
3.1
>>> reported_measurement("COC(=O)CN(C)Cc1c(OC)cc(OC)c(C(=O)/C=C/c2ccccc2Cl)c1O")
7.2
>>> reported_measurement("COc1cc(OC)c(C(=O)/C=C/c2ccccc2Cl)c(O)c1CN1CCCCC1")
1.7

Next molecule, please.
Specify IC50 for "COc1cc(OC)c(C(=O)/C=C/c2ccccc2Cl)c(O)c1CN1CCN(C)CC1" and stop.
4.7

----------
Below is a list of entries, each paired with its recorded pIC50 value.
Procedure details: Antiproliferative activity against human ECA109 cells after 72 hrs
Format: functional, cell-based
Experimental conditions: ECa-109, 72 h
Kindly note that pIC50 refers to -log10 of the concentration in mol/L and answer with the value alone.

Example results:
>>> reported_measurement("COc1cc(OC)c(C(=O)/C=C/c2ccccc2Cl)c(O)c1CN1CCOCC1")
5.21
>>> reported_measurement("COc1cc(OC)c2c(=O)cc(-c3ccccc3Cl)oc2c1CN1CCCCC1")
4.63
>>> reported_measurement("COc1cc(OC)c(C(=O)/C=C/c2ccccc2Cl)c(O)c1CN(C)CC(=O)O")
4.35
>>> reported_measurement("COc1cc(OC)c2c(=O)cc(-c3ccccc3Cl)oc2c1CN1CCOCC1")
4.21
>>> reported_measurement("COC(=O)CN(C)Cc1c(OC)cc(OC)c(C(=O)/C=C/c2ccccc2Cl)c1O")
4.86

Output pIC50 of "COc1cc(OC)c(C(=O)/C=C/c2ccccc2Cl)c(O)c1CN(C)CCCN(C)C"
5.42

----------
Quick list: log10(IC50) per entry.
Tested on: PC-3
Procedure details: Antiproliferative activity against human PC3 cells after 72 hrs
Assay type: functional, cell-based
Experimental conditions: PC-3, 72 h
Transform log10 | Measure IC50 | Unit µM

>>> reported_measurement("COc1cc(O)c2c(=O)cc(-c3ccccc3Cl)oc2c1CN1CCCCC1")
1.80
>>> reported_measurement("COc1cc(OC)c(C(=O)/C=C/c2ccccc2Cl)c(O)c1CN(C)CCCN(C)C")
1.16
>>> reported_measurement("CCN(C)Cc1c(OC)cc(OC)c(C(=O)/C=C/c2ccccc2Cl)c1O")
-2.52
>>> reported_measurement("COc1cc(OC)c(C(=O)/C=C/c2ccccc2Cl)c(O)c1CN(C)CC(=O)O")
1.10
>>> reported_measurement("COc1cc(OC)c(C(=O)/C=C/c2ccccc2Cl)c(O)c1CN(C)CCO")
0.79

Turning to the following molecule.
Give the value of log10(IC50) reported for the following: "COc1cc(OC)c2c(=O)cc(-c3ccccc3Cl)oc2c1CN1CCOCC1"
1.76

----------
Recorded pIC50 by entry
Procedure details: Antiproliferative activity against human ECA109 cells after 72 hrs
Type: functional, cell-based
Experimental conditions: ECa-109, 72 h
Expect pIC50 as a plain number equal to -log10 of the molar concentration.

Please review the following examples before continuing.
>>> reported_measurement("COc1cc(OC)c(C(=O)/C=C/c2ccccc2Cl)c(O)c1CN1CCN(C)CC1")
5.15
>>> reported_measurement("COc1cc(OC)c(C(=O)/C=C/c2ccccc2Cl)c(O)c1CN(C)CCO")
6.10
>>> reported_measurement("COc1cc(O)c2c(=O)cc(-c3ccccc3Cl)oc2c1CN1CCCCC1")
4.67
>>> reported_measurement("CCN(CC)Cc1c(OC)cc(OC)c(C(=O)/C=C/c2ccccc2Cl)c1O")
5.15
>>> reported_measurement("COc1cc(OC)c(C(=O)/C=C/c2ccccc2Cl)c(O)c1CN1CCCCC1")
5.60

Next up:
Please list pIC50 recorded for the compound "COc1cc(OC)c(C(=O)/C=C/c2ccccc2Cl)c(O)c1CN1CCCC1"
5.16

----------
Consider the following molecules and their measured IC50 readings.
Tested on: PC-3
Procedure details: Antiproliferative activity against human PC3 cells after 72 hrs
Type: functional, cell-based
Experimental conditions: PC-3, 72 h
Give just the numeric value; µM need not be written.

Answered examples (3):
>>> reported_measurement("COc1cc(OC)c(C(=O)/C=C/c2ccccc2Cl)c(O)c1CN(C)CCOC(C)=O")
10
>>> reported_measurement("COc1cc(O)c2c(=O)cc(-c3ccccc3Cl)oc2c1CN1CCOCC1")
42
>>> reported_measurement("COc1cc(OC)c2c(=O)cc(-c3ccccc3Cl)oc2c1CN1CCCCC1")
15.5

Supply IC50 value. Item: "COc1cc(OC)c(C(=O)/C=C/c2ccccc2Cl)c(O)c1CN1CCOCC1"
17.2

----------
Procedure details: Antiproliferative activity against human ECA109 cells after 72 hrs
Type: functional, cell-based
Experimental conditions: ECa-109, 72 h
Catalogue of compounds with associated pIC50
Hey, just a heads up that pIC50 is the negative log base 10 of the concentration in molar.

// below: answered compounds
>>> reported_measurement("COc1cc(OC)c(C(=O)/C=C/c2ccccc2Cl)c(O)c1CN(C)C")
5.59
>>> reported_measurement("CCN(C)Cc1c(OC)cc(OC)c(C(=O)/C=C/c2ccccc2Cl)c1O")
5.85
>>> reported_measurement("COc1cc(O)c2c(=O)cc(-c3ccccc3Cl)oc2c1CN1CCOCC1")
4.06

Could you now consider this next compound?
Look up and state reported pIC50 for "COc1cc(OC)c(C(=O)/C=C/c2ccccc2Cl)c(O)c1CN(C)CCOC(C)=O"
5.41
